Biological target: soluble cynomolgus monkey TNF-alpha (cynomolgus monkey, UniProt P79337 77-233)
Sequence (P79337 77-233 limits assumed): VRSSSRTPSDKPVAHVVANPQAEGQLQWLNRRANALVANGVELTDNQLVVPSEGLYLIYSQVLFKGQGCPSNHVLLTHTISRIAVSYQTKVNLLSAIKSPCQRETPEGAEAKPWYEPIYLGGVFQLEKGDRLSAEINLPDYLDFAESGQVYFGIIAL
Assay: cell-based or functional assay
Listing: Inhibition of cynomolgus TNF-induced L929 cell cytotoxicity EC50 of selected binders
The reply should consist of the numeric value with the unit placed after it.

These solved cases illustrate the format of a correct answer.
Q65B1 (VHH, not shown: small tags and cut ends, Family 1; purified from E. coli; parent of the ID series) VHH: EVQLVESGGGLVQPGGSLKLSCAASGFDFSSHWMYWVRQAPGKELEWLSEINTNGLITKYGDSVKGRFTVSRNNAANKMYLELTRLEPEDTALYYCARNQKGLNKGQGTQVTVSS: 0.01 nM
Q65D1 (VHH, not shown: small tags and cut ends, Family 1; purified from E. coli) VHH: EVQLVESGGGLVQPGGSLRLSCTASGFDFDNHWMCWVRQAPGKGLEWVSEINTNGLITKYADFVKGRFTVSRDNAANTLYLQITRLKPEDTALYYCARNQKGLNKGQGTQVTVSS: 0.06 nM
Q65D3 (VHH, not shown: small tags and cut ends, Family 1; purified from E. coli) VHH: EVQLVESGGGLVQPGGSLRLSCVASGFDFSSHWMYWVRQAPGKGLEWVSEINTNGLITKYADSTKGRFTVSRDNAANMLNLEMTSLEPEDTALYYCARNERGLNKGQGTQVTVSS: 0.1 nM

Proceed to the following item.
Inhibition of cynomolgus TNF-induced L929 cell cytotoxicity EC50 in this record for Q65E12 (VHH, not shown: small tags and cut ends, Family 2; purified from E. coli) VHH: EVQLVESGGGLVQPGGSLRLSCSASGFDFSIHWMYWVRQAPGKELEWVAEINTNGLITLYADSVKGRFTASRDNAKNALFLQMNDLKFEDTAVYYCAKSRNGAAGGQGTQVTVSS : 4 nM
